Conditions: 293.15 K; 12000 kPa; Liquid; vibrating tube
mass density by entry:
observable: mass density (kg/m3)

compound	unitText	measuredNumber
CCCCCCCC[n+]1ccn(C)c1.F[B-](F)(F)F [1-methyl-3-octylimidazolium tetrafluoroborate]	kg/m3	1113.61
CCCCCCn1cc[n+](C)c1.F[B-](F)(F)F [1-hexyl-3-methylimidazolium tetrafluoroborate]	kg/m3	1154.65
CCn1cc[n+](C)c1.F[B-](F)(F)F [1-ethyl-3-methylimidazolium tetrafluoroborate]	kg/m3	1294.48
CCCCn1cc[n+](C)c1.F[B-](F)(F)F [1-butyl-3-methylimidazolium tetrafluoroborate]	kg/m3	1210.69
